REPORTED PROPERTY: melting point

I am curious: what melting point value has been reported for Cn1c(S(=O)(=O)c2ccc(=O)[nH]n2)cc2ccccc21 ?
233 to 235 °C

Given COC(=O)Cn1c(C)cc(CC2CCCCC2)c([N+](=O)[O-])c1=O , state its recorded melting point.
128 °C

====

Measured melting point values are reported for all entries that follow.

Some solved cases for reference:
COMPOUND: CC(C)(C)c1ccc(/C=C/C(=O)Nc2ccc3occc3c2)cc1
melting point: 149 to 150 °C

COMPOUND: CC(C)c1ccc(-c2ncc(-c3cccc(C(=O)O)c3)o2)cc1
melting point: 193 to 195 °C

COMPOUND: CNC(=O)c1ccc(C2=NOC(c3cc(Cl)cc(Cl)c3)(C(F)(F)F)C2)cc1C (centres undefined)
melting point: 184 to 185 °C

COMPOUND: CCOC(=O)CCc1c(C)c2c(O)cc(C(C)CCCc3ccccc3)cc2oc1=O (centres undefined)
melting point: 58 to 70 °C

Bench note: what melting point did CC(=O)OC1CSC(Oc2ccnc(-c3ccncc3)c2)C(OC(C)=O)C1OC(C)=O (centres undefined) show?
185 °C

I have this compound here, CCOC(=O)C1CS(=O)(=O)c2c(C(=O)c3ccccc3)cc(Cl)cc21 (centres undefined) , and I need its recorded melting point.
138 to 139 °C

Suppose we examine the compound COC(=O)Oc1nc2c(N)ncnc2n1Cc1ccccc1 ; what melting point value has been reported?
> 300 °C

Origin of values: a melting point compilation (Tetko et al.; mined from patent text by program, amines drawn as free bases though some values may be those of a salt)
